Would you mind telling me the reported pKd of each entry?
# tgt: T1, human ST2L extracellular domain with C-terminal His6 tag (human, UniProt Q01638 19-328)
# T1 construct: also called huST2L-ECD; ST2L-ECD
# T1 sequence: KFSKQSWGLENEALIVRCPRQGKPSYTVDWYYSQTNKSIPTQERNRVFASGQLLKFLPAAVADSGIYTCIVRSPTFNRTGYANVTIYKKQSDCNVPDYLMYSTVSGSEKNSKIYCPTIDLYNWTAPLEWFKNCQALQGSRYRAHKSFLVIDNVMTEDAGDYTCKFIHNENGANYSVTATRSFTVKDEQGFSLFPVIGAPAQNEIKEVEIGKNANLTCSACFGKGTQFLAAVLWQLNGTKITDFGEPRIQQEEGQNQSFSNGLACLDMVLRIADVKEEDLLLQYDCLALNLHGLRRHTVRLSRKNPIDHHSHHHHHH
# assay-text: ProteOn SPR, mAb captured, ST2L-ECD in solution
FYI, pKd means -log10 of a concentration in mol per litre.

Tell me its pKd given STLM190 (antibody, V domains shown, C2494 HFA mAb: VH STLH195 + VL STLL277 (L8)) VH: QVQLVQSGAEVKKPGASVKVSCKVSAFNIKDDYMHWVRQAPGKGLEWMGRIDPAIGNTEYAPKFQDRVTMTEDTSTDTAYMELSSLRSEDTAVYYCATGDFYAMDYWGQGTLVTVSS VL: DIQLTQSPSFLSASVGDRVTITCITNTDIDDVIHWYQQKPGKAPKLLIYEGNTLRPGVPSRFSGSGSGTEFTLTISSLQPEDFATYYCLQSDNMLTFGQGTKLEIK as the entry. 9.27

Tell me its pKd given STLM201 (antibody, V domains shown, C2494 HFA mAb: VH STLH194 + VL STLL276 (L12)) VH: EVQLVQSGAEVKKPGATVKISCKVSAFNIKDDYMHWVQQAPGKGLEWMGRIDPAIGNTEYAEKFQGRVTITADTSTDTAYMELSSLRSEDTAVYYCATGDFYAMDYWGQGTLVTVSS VL: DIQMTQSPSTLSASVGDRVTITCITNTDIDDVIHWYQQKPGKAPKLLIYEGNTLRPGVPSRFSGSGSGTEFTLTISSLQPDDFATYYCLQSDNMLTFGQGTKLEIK as the entry. 10.32

Tell me its pKd given STLM204 (antibody, V domains shown, C2494 HFA mAb: VH STLH194 + VL STLL273 (A20)) VH: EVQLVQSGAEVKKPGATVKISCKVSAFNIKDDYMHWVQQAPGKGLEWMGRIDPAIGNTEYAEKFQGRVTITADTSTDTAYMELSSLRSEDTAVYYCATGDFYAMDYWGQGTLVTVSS VL: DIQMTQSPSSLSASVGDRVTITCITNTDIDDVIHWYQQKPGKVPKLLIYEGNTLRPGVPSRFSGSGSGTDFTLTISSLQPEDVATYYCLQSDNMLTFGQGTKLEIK as the entry. 10.09
